The origin of these recorded values is ChEMBL document CHEMBL4699493.

Attribute: MIC
# System: Klebsiella pneumoniae
# EXPERIMENT_SUMMARY: Antibacterial activity against Klebsiella pneumoniae ATCC 13383
# Format: functional
QUANTITY: MIC

INSERT INTO assay_data (substance_smiles, observed_value) VALUES
  ('CCCCCCCCCC(=O)N[C@@H](CCCCN)CNCC(=O)Nc1ccc(NC(=O)CNC[C@H](CCCCN)NC(=O)CCCCCCCCC)cc1', '> 25 µg/mL'),
  ('NCCCC[C@@H](CN1CC(=O)N(c2ccc(N3CN(C[C@H](CCCCN)NC(=O)CC45C[C@H]6C[C@@H](C4)C[C@@H](C5)C6)CC3=O)cc2)C1)NC(=O)CC12C[C@H]3C[C@@H](C1)C[C@@H](C2)C3', '> 25 µg/mL'),
  ('CCCCCCCCCC(=O)N[C@@H](CCCCN)CN1CC(=O)N(c2ccc(N3CN(C[C@H](CCCCN)NC(=O)CCCCCCCCC)CC3=O)cc2)C1', '5 µg/mL'),
  ('CCCCCCCCCCCCCC(=O)N[C@@H](CCCCN)CN1CC(=O)N(c2ccc(N3CN(C[C@H](CCCCN)NC(=O)CCCCCCCCCCCCC)CC3=O)cc2)C1', '> 25 µg/mL'),
  ('CCCCCCCCCC(=O)N[C@@H](CCCCNC(=N)N)CN1CC(=O)N(c2ccc(N3CN(C[C@H](CCCCNC(=N)N)NC(=O)CCCCCCCCC)CC3=O)cc2)C1', '5 µg/mL'),
  ('CCCCCCCCCC(=O)N[C@@H](Cc1ccccc1)CN1CC(=O)N(c2ccc(N3CN(C[C@H](Cc4ccccc4)NC(=O)CCCCCCCCC)CC3=O)cc2)C1', '> 25 µg/mL');
